study target: T1, Hof1, Q05080
T1 sequence (Q05080 590-669, looked up): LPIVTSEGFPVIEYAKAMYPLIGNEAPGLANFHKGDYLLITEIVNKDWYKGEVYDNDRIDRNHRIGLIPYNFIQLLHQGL
procedure summary: SPOT array
test settings: median of control spots 4086
Give measured SPOT intensity for each item. Keep answers brief.
One number for each entry.

Example binders with recorded SPOT intensity:
- binder: "YSRKKLPVVLSKMTL"
  quantitative result: 2
- binder: "LKVTPGRRAPTISKI"
  quantitative result: 0
- binder: "SSSSTPPTLPPRRIE"
  quantitative result: 5

Switching to the query record.
Check the records and state SPOT intensity for "LKQRFFLMFPKSIIW"
5
